Measurement Description: Pharmacokinetic studies in rats (plasma and brain)
Type: in vivo
Measurement Conditions: rat, brain, ip, 40 mg/kg, rat, i.p. 40 mg/kg, 2h, mean of Plasma 2h, Brain 2h rats; read-out: Brain concentration
Assay Metric: concentration at 2 h
Note: state the figure and append the unit.

Sure, the documented concentration at 2 h for N[C@H](CNC(=O)C1(c2ccc(Cl)cc2)CCCC1)c1ccc(C(=O)Nc2ccncc2)cc1 [CP612] is 494 nM

* * *

Target Or Test System: ROCK1 (Homo sapiens)
Sequence (Q13464 1-477 limits assumed): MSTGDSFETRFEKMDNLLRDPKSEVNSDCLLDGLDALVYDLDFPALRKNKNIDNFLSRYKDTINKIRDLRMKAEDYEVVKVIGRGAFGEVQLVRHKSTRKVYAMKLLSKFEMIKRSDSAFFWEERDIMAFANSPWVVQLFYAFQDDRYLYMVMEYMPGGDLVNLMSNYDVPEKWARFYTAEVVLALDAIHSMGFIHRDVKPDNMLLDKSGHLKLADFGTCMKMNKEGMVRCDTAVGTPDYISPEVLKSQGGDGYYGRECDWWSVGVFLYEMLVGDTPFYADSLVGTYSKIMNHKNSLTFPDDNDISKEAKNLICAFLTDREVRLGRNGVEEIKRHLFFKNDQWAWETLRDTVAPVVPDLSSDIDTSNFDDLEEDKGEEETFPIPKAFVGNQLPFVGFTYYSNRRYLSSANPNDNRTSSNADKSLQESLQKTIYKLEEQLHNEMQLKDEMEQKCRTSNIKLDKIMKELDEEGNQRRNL
Measurement Description: Lance-FRET kinase assay, ROCK1
Type: biochemical
Parameters: purchased Carna Biosciences
Measurement Conditions: mean of all runs (count 42 CP612; 38 CIDD-0072424); 2.5 μM ATP; read-out: IC50 (nM) [Enzyme: ROCK1], mean
Assay Metric: IC50 (nM)
Return type: number; implicit unit nM.

Entry N[C@H](CNC(=O)C1(c2ccc(Cl)cc2)CCCC1)c1ccc(C(=O)Nc2ccncc2)cc1 , IC50 reported as 65.9

All figures here come from paper PMC12016938.
